Tested system: T1, receptor(s) of FC5 on HBEC-D3 cells (human microvascular brain endothelial cells) (human, UniProt Q9NV96 2-361)
T1 construct: whole, on cells; The assay used whole, untransfected endothelial cells; also called human brain endothelial cells; TMEM30A
T1 sequence (looked up): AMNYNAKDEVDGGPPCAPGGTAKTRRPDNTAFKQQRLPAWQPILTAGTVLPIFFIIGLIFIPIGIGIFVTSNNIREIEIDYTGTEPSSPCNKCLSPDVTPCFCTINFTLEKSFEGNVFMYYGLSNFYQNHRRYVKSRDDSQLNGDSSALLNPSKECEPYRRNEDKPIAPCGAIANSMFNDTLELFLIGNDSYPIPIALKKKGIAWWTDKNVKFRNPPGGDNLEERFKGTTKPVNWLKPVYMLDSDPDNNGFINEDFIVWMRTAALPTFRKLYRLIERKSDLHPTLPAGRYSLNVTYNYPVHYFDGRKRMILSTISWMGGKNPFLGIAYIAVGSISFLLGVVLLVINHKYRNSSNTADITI
Measurement protocol: Mirrorball microplate cytometry on HBEC-D3 cells in suspension, anti-c-myc Alexa 488 detection
For each record, write down the corresponding HBEC-D3 binding (MMFI at 1.3 µM antibody).
One number for each entry, in MMFI.

Consider the worked cases shown below.
FC5-H1 (VHH, Humanized variant of FC5, expressed with His5 and c-myc tags; not shown: His5 and c-myc tags) VHH: EVQLVESGGGLVQPGGSLRLSCAASGFKITHYTMGWVRQAPGKGLEWVSRITWGGDNTFYSNSVKGRFTISRDNSKNTLYLQMNSLRAEDTAVYYCAAGSTSTATPLRVDYWGQGTLVTVSS | 66.4
FC5 VHH (parental camelid single domain antibody) (VHH, Llama-derived VHH expressed in E. coli in fusion with His5 and c-myc tags; also called FC5 camelid; sdAb FC5; not shown: His5 and c-myc tags) VHH: DVQLQASGGGLVQAGGSLRLSCAASGFKITHYTMGWFRQAPGKEREFVSRITWGGDNTFYSNSVKGRFTISRDNAKNTVYLQMNSLKPEDTADYYCAAGSTSTATPLRVDYWGKGTQVTVSS | 39.1
FC5-H3 (VHH, Humanized variant of FC5, expressed with His5 and c-myc tags; not shown: His5 and c-myc tags) VHH: EVQLVESGGGLVQPGGSLRLSCAASGFKITHYTMGWFRQAPGKGLEFVSRITWGGDNTFYSNSVKGRFTISRDNSKNTVYLQMNSLRAEDTAVYYCAAGSTSTATPLRVDYWGQGTLVTVSS | 43.9

Give HBEC-D3 binding (MMFI at 1.3 µM antibody) for each of the items listed below.
1. FC5-H2 (VHH, Humanized variant of FC5, expressed with His5 and c-myc tags; not shown: His5 and c-myc tags) VHH: EVQLVESGGGLVQPGGSLRLSCAASGFKITHYTMGWVRQAPGKGLEWVSRITWGGDNTFYSNSVKGRFTISRDNSKNTVYLQMNSLRAEDTAVYYCAAGSTSTATPLRVDYWGQGTLVTVSS
2. FC5-H7 (VHH, Humanized variant of FC5, expressed with His5 and c-myc tags; not shown: His5 and c-myc tags) VHH: EVQLVESGGGLVQPGGSLRLSCAASGFKITHYTMGWFRQAPGKEREFVSRITWGGDNTFYSNSVKGRFTISRDNSKNTLYLQMNSLRAEDTAVYYCAAGSTSTATPLRVDYWGQGTLVTVSS

Result block:
1: 31; 2: 72.8
